Tested on: multidrug-resistant (MDR) strain of K. pneumoniae, clinical isolate
method: microbe, parasite or virus in culture
Assay type: cell-based, Klebsiella pneumoniae
protocol-conditions: Klebsiella pneumoniae
The reader will find reported IC50 values listed item by item below.
Unit µM implied. Number only.

compound | units-symbol | IC50
CNC(C)C1CCC(N)C(OC2C(N)CC(N)C(OC3OCC(C)(O)C(NC)C3O)C2O)O1 (stereo not drawn) | µM | 33.4
O=C(N[C@H](CO)[C@H](O)c1ccc([N+](=O)[O-])cc1)C(Cl)Cl | µM | 56.2

Proceeding to the next compound to report its IC50.
Field IC50 (entry C[C@H]1c2cccc(O)c2C(=O)C2=C(O)[C@]3(O)C(=O)C(C(N)=O)=C(O)[C@@H](N(C)C)[C@@H]3[C@@H](O)[C@@H]21 ) reads 38.1

====

System: E. coli ATCC® 25922
Type: cell-based, Escherichia coli
protocol-conditions: plating on Mueller-Hinton agar, 24 h 37 °C, absence of growth
Ends that are not written are not given here.
experimental-readout: MBC (µM)
Unit µM implied. Number only.

A selection of reference data follows.
substance | target-desc | value-reported
GRIFRLLRK-NH2 [PvAMP82] | E. coli ATCC® 25922 | 100
IIKKIWK-NH2 [PvAMP32] | E. coli ATCC® 25922 | 100
CRKLCFRNRCLTYCRGR-NH2 (disulfide (positions not given here)) [PvAMP172, predicted P. verdolaga AMP] | E. coli ATCC® 25922 | 50
QCRKLCFRNRCLTYCRGRG-NH2 (disulfide (positions not given here)) [PvAMP183, predicted P. verdolaga AMP] | E. coli ATCC® 25922 | 50

Field MBC (entry YRARCVIYC-NH2 (disulfide) [PvAMP69, predicted P. verdolaga AMP] ) reads 200

====

System: E. coli ATCC® 25922
Type: cell-based, Escherichia coli
protocol-conditions: plating on Mueller-Hinton agar, 24 h 37 °C, absence of growth
Experimental: The nine AMPs identified in the initial screening were evaluated at concentrations between 1.56–200 µM, against E. coli ATCC® 25922, S. aureus ATCC® 29213, E. faecalis ATCC® 49532, P. aeruginosa ATCC® 9027, and K. pneumoniae ATCC® BAA-1705 (Supplementary Figures S2–S6). […] Only PvAMP66 and PvAMP172 reached the MBC for S. aureus at 50 µM and 100 µM, respectively (Table 2). […]
Ends that are not written are not given here.
The reader will find reported MBC values listed item by item below.
Unit µM implied. Number only.

Field MBC (entry RSVLKAHCRICRRRG-NH2 (disulfide) [PvAMP164, predicted P. verdolaga AMP] ) reads 200

Field MBC (entry WKKIKKFF-NH2 [PvAMP66] ) reads 50

Field MBC (entry QCRKLCFRNRCLTYCRGR-NH2 (disulfide (positions not given here)) [PvAMP177, predicted P. verdolaga AMP] ) reads 50

====

Tested on: E. coli ATCC® 25922
Type: cell-based, Escherichia coli
protocol-conditions: CLSI broth microdilution, Mueller-Hinton broth, peptide 30 µM, ~6 × 10^6 CFU/mL, 24 h 37 °C, OD600; triplicate, three independent assays; NA = no activity
Ends that are not written are not given here.
experimental-readout: E. coli ATCC® 25922 (Inhibition %)
Unit % implied. Number only.

A selection of reference data follows.
substance | target-desc | experimental-readout | value-reported
YRARCVIYC-NH2 (disulfide) [PvAMP69, predicted P. verdolaga AMP] | E. coli ATCC® 25922 | E. coli ATCC® 25922 (Inhibition %) | 19.08
RSVLKAHCRICRRRG-NH2 (disulfide) [PvAMP164, predicted P. verdolaga AMP] | E. coli ATCC® 25922 | E. coli ATCC® 25922 (Inhibition %) | 30.10
IIKKIWK-NH2 [PvAMP32] | E. coli ATCC® 25922 | E. coli ATCC® 25922 (Inhibition %) | 21.19

Field E. coli ATCC® 25922 (Inhibition %) (entry GRIFRLLRK-NH2 [PvAMP82] ) reads 74.94

Field E. coli ATCC® 25922 (Inhibition %) (entry FSGNKLLPG-NH2 [PvAMP81] ) reads 31.88
